tested on: MHC-II H2-IA allele; assay: MHC-II competition-binding assay in vitro; conditions: competition with 0.1 μM biotin-labeled control peptide, 50 nM purified MHC-II, 37 °C 24 hr, europium fluorescence; eight concentrations, three independent experiments
Value Kind: Binding stability for MHC-II

> print(dat)
                  entry.sequence         assay.target         result
1   ASMIHEVGIEAMFPDGTK [ureA #2]  MHC-II H2-IA allele  highly stable
2  KMLELANQIKTNLSAIPQ [hopZ #53]  MHC-II H2-IA allele  highly stable
3    YVEAVALISAHIMEEAR [ureA #3]  MHC-II H2-IA allele  highly stable

The reported numbers originate from paper PMC11524579.
